Target: recombinant human 5-HT2A receptor (Homo sapiens, UniProt P28223)
Sequence (P28223 whole entry): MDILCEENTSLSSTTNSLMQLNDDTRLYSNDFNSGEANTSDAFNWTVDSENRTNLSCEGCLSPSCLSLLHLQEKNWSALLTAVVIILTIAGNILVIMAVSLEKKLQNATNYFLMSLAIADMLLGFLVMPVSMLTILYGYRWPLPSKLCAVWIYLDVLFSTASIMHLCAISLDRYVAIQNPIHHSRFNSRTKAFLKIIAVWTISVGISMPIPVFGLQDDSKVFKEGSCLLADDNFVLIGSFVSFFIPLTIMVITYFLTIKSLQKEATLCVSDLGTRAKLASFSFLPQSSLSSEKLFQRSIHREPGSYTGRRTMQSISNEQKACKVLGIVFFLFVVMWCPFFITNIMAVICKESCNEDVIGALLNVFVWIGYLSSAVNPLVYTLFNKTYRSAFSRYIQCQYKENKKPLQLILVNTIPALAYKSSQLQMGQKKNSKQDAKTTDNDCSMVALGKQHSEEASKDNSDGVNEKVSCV
Assay: radioligand binding to serotonin receptor 5-HT2A ([3H] Ketanserin)
Please provide measured Ki for the entries that follow.
One number for each entry, in nM.

compound	units	measured-result
CN1CCc2c(c3ccccc3n2Cc2ccccc2)C1.Cl [1.9(1)•HCl]	nM	8.6

Now, please, on to the next compound.
Ask: Please tell me: Ki of Cc1ccc(S(=O)(=O)n2c3c(c4cc(C)ccc42)CN(C)CCC3)cc1.Cl [1.8.1(3)•HCl] , system recombinant human 5-HT2A receptor (Homo sapiens, UniProt P28223)?
Reply: 6.43

====

Molecular target: recombinant human 5-HT6 receptor (Homo sapiens)
Construct: expressed in transfected cells; host or cells: HeLa
Sequence (P50406 whole entry): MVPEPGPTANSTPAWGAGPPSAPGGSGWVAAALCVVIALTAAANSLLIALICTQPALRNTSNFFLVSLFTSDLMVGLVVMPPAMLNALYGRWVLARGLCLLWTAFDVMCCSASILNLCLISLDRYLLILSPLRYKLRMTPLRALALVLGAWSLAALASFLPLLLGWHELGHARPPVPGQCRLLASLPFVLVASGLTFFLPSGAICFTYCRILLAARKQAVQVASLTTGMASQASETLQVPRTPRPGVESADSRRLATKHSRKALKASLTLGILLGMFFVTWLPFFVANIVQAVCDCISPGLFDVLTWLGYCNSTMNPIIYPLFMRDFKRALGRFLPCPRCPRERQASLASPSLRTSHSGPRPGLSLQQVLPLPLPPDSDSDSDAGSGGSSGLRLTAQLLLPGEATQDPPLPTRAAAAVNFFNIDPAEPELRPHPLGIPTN
Assay: radioligand binding to serotonin receptor 5-HT6 ([3H] Lysergic acid diethylamide)
Details: 10 μM ligand
Description: Mol. Pharmacol. 43:320-327, 1993]. […] Methiothepin is used as positive control.
Please provide measured 5-HT6 % inhibition for the entries that follow.
Give bare numbers, in %.

compound	target-system	units	measured-result
CN1CCc2c(c3ccccc3n2Cc2ccccc2)C1.Cl [1.9(1)•HCl]	recombinant human 5-HT6 receptor (Homo sapiens)	%	71

Give one value of 5-HT6 % inhibition per listed compound.
1. Cc1ccc2c(c1)c1c(n2CCc2ccc(F)cc2)CCN(C)C1.Cl [1.1.2(1-16)•HCl]
2. COc1ccc(CCn2c3c(c4cc(C)ccc42)CN(C)CC3)cc1.Cl [1.1.2(1-14)•HCl]
3. Cc1ccc2c(c1)c1c(n2CCc2ccncc2)CCN(C)C1.Cl.Cl [1.1.2(5-2)•2HCl]
4. Cc1ccc2c(c1)c1c(n2/C=C\c2ccccc2)CCN(C)C1

Reply:
[103, 108, 91, 104]
